Values were extracted from PubChem BioAssay (NCI).

tested on: HT29 colon
Pick from active, inactive when you respond.

molecule | label.class
COc1ccc(-c2nn(-c3cccc(NC(=O)Nc4ccc(Cl)c(C(F)(F)F)c4)c3)cc2-c2ccncc2)cc1Cl | inactive
COc1ccc(N(CC(=O)NCCC[Te]c2ccccc2)C(=O)CCSC2=C(C)C(=O)c3ccccc3C2=O)cc1 | inactive
N.N.N.N.N.N.[I-].[Os] | inactive
CCCCCCCC/C=C/CCCCCCCC1=NC(C)(C)CN1C(C)C | inactive
COc1cc(/C=C2\CN(C)C/C(=C\c3cc(OC)c(OC)c(OC)c3)C2=O)cc(OC)c1OC | active
CN[C@]12CC3(C=CC(=O)C=C3)O[C@@]1(Cc1ccc(OC)cc1)N(C)C(=O)N2 | inactive

Please turn your attention to the following entry.
Each molecule tested received a call. Report the one for CCCc1cc2cc(-n3nc(C)c4c3CC(C)(C)CC4=O)cc(NC3CCC(O)CC3)c2c(=O)[nH]1 (configuration not stated) .
active

====

test system: T-47D breast; assay: NCI tumour cell line growth inhibition, 48 h
For each entry below, report its TGI value.

compound | target.under.test | observed.property | result
O=C(C#CP(=O)(O)c1ccccc1)c1ccccc1 | T-47D breast | TGI | > 100 µM

Respectfully, I request TGI for each entry included below.
1. O=C1OCc2c1cc(F)cc2[N+](=O)[O-]
2. Cc1cc2c(cc1Cl)SC(N/N=C(\N)c1ccc(Cl)cc1)=NS2(=O)=O
3. CC(C)(C)[Si](C)(C)OCCCCC1CC2(S(=O)(=O)C3=CC=C=C=C3)ON1CC2S(=O)(=O)c1ccccc1 (stereo unspecified)
4. Clc1ccc(Nc2nc(Cl)c3[nH]cnc3n2)cc1Cl
5. O=C1C(=O)c2ccccc2-c2ccccc21
6. O=c1cc(-c2ccc(Cl)cc2)[nH]c2ncccc12
7. COC(=O)C(=O)c1c2ccccc2n2ccc3c4ccccc4[nH]c3c12

["> 100 µM", "> 100 µM", "> 100 µM", "80.4 µM", "2.72 µM", "> 100 µM", "> 10 µM"]

Respectfully, I request TGI for each entry included below.
1. COc1ccc2c(c1)CCc1c(-c3noc4c3CCc3cc(OC)ccc3-4)noc1-2
2. O=C(Nc1n[nH]c2nc(-c3ccco3)ccc12)C1CC1
3. C=C1C(=O)O[C@H]2[C@H]1CC/C(COC(=O)CCCCCCCCC(=O)OC/C1=C/CC[C@@]3(C)O[C@H]3[C@H]3OC(=O)C(=C)[C@@H]3CC1)=C\CC[C@@]1(C)O[C@@H]21

> 100 µM
> 25 µM
6.2 µM

====

tested on: OVCAR-3 ovarian; experiment: NCI tumour cell line growth inhibition, 48 h
Where a SMILES comes first, the peptide text is derived from it. [ ]: non-standard residue; d: D form. The star is where a group is joined. ξ: configuration not given here. dThr(3ξ) = CC(O)[C@@H](N)C(=O)O; dNMeL = CN[C@H](CC(C)C)C(=O)O; OBn = c1ccc(CO*)cc1; ξLac = CC(O)C(=O)O
Exercise: for every item that follows, state its recorded TGI.

Example entries begin here.
molecule | target.under.test | result
COc1ccc(C(=O)N2CCc3c([nH]c4ccccc34)C2C(=O)O)o1 (stereo unspecified) | OVCAR-3 ovarian | > 10 µM
OCC1NCC(O)C(O)C1O (stereo unspecified) | OVCAR-3 ovarian | > 100 µM
CC(=O)OCC1OC(n2c(C)c(N=Nc3ccccc3)c(C)c(C#N)c2=S)C(OC(C)=O)C(OC(C)=O)C1OC(C)=O (stereo unspecified) | OVCAR-3 ovarian | > 100 µM
O=C(c1cccc(OCc2ccccc2)c1OCc1ccccc1)N1CCSC1=S | OVCAR-3 ovarian | 62.9 µM
C=C[C@]1(C)CCC2=C(CCC3C2(C)CCC[C@]3(C)CO)C1 (stereo partly specified) | OVCAR-3 ovarian | > 100 µM
C[C@@H](CO)OCOCc1ccccc1 | OVCAR-3 ovarian | > 100 µM

# batch: return TGI for each of the 6 molecules below
1. Cc1cccc2c(N=Nc3ccc(S(N)(=O)=O)cc3)c(O)[nH]c12
2. CC(=O)OC(C)[C@@H](NC(=O)[C@@H](CC(C)C)N(C)C(=O)[C@@H]1CCCN1C(=O)C(C)O)C(=O)OCc1ccccc1 (stereo partly specified) (H-[ξLac]P[dNMeL][dThr(3ξ)](Ac)-OBn)
3. O=C(C#CP(=O)(O)c1ccccc1)c1ccccc1
4. CCC(C)C1NC(=O)C2CCCN2C(=O)C(CC2CO2)OC(=O)CCNC(=O)C(C)N(C)C(=O)C(C(C)C)N(C)C1=O (stereo unspecified)
5. Cc1cc2c(c(C=Nc3ccc([N+](=O)[O-])cc3)c1)OC1(C=C2)Oc2ccccc2C(=O)N1C (stereo unspecified)
6. N#CC(=S)Nc1ccc(Cl)c(Cl)c1

1: > 25 µM; 2: > 100 µM; 3: > 100 µM; 4: > 100 µM; 5: 60.9 µM; 6: 54.3 µM

Answer for every listed entry: what is its TGI? The entries follow.
1. NC(CNO)C(=O)O (stereo unspecified)
2. C=C1C[C@@H](O)[C@@H](Br)C(C)(C)[C@]12CCC(C)(Cl)C(Br)C2 (stereo partly specified)
3. COc1ccc(N(CC(=O)NCCC[Te]c2ccccc2)C(=O)CCSC2=C(C)C(=O)c3ccccc3C2=O)cc1
4. CCOC(=O)/C(=C\NCC(OCC)OCC)c1nc2ccccc2[nH]1
5. Cc1cc(C)c(O)c(Cc2cccc(Cc3cc(C)cc(C)c3O)c2O)c1
6. N.N.N.N.N.N.[I-].[Os]
7. COc1ccc(NC(=O)C(=O)C2CNC(=O)NC2=O)c(OC)c1 (stereo unspecified)
8. OCCOCn1cc(Cn2ncc3c(SCc4ccccc4)ncnc32)nn1

["> 100 µM", "37.4 µM", "3.19 µM", "61.9 µM", "> 100 µM", "> 100 µM", "> 100 µM", "> 100 µM"]

# query: TGI of entry Cc1ccc([N+](=O)[O-])cc1NC(=O)C(=O)Cc1occc(=O)c1O
> 100 µM

====

Would you mind telling me the reported TGI of each entry?
system: SK-MEL-28 melanoma; experiment: NCI tumour cell line growth inhibition, 48 h

Consider the worked cases shown below.
compound | result
COC(=O)/C(C#N)=C1\CCC(O)N1C (stereo unspecified) | > 100 µM
C=C1C[C@@H](O)[C@@H](Br)C(C)(C)[C@]12CCC(C)(Cl)C(Br)C2 (stereo partly specified) | > 100 µM
O=C(O)c1ccc2c(c1Nc1ccccc1)C(=O)c1ccccc1C2=O | > 100 µM
CCc1ccccc1NC(=O)CCc1n[nH]c(=S)o1 | > 100 µM
O=C1/C(=C\C(Cl)=C/c2ccc([N+](=O)[O-])cc2)SC(=S)N1CCc1ccc(O)cc1 | 1.96 µM

What TGI value was documented for this compound, COc1ccc(CNc2nc3cc(C(F)(F)F)ccc3nc2C(=O)O)cc1OC ?
> 100 µM

====

system: 786-0 renal; experiment: NCI tumour cell line growth inhibition, 48 h
observed.property: TGI

molecule | target.under.test | TGI
OCC1OC(Oc2cc(O)cc(/C=C\c3ccc(O)cc3)c2)C(O)C(O)C1O (stereo unspecified) | 786-0 renal | > 100 µM
N=C1N(c2ccccc2)C(=O)C23CCCC2C13N1CCOCC1 (stereo unspecified) | 786-0 renal | > 100 µM
C=C1C(=O)O[C@H]2[C@H]1CC/C(Cn1cc(Cn3ccc4ccccc43)nn1)=C\CC[C@@]1(C)O[C@@H]21 | 786-0 renal | 3.12 µM

Batch: TGI for all items listed.
1. S=c1nc2[nH]ncc2c(N/N=C/c2ccccc2)[nH]1
2. O=C1C2=Cc3ccccc3OC2(O)Oc2cc(O)ccc21 (stereo unspecified)
3. C#CCN=C(N/N=C/c1ccc([N+](=O)[O-])o1)NS(=O)(=O)c1cc(C)c(Cl)cc1SCC(N)=O
4. O=C(Cn1cc(-c2ccccc2)nn1)NC1CCCC1

1. > 100 µM
2. > 100 µM
3. 36.5 µM
4. > 100 µM

Please report TGI for every entry that follows.
1. c1cc(OCCN2CCCCCC2)ccc1CNc1ccc2nc(CCC3CCCCC3)[nH]c2c1
2. O=S1(=O)OC(c2ccc(O)cc2)(c2ccc(O)cc2)c2ccccc21
3. ClC1CCC2OOC1O2 (stereo unspecified)
4. Oc1ccc(CNCc2ccccc2)c2cccnc12

1. 3.29 µM
2. > 100 µM
3. > 100 µM
4. > 24.7 µM

Batch: TGI for all items listed.
1. O=C1C(=O)N(C(=O)c2ccc(Cl)c(Cl)c2)c2ccc(Cl)cc21
2. CC1(C)CC[C@]2(C(=O)O)CC[C@]3(C)C(=CC[C@@H]4[C@@]5(C)C[C@H](O)[C@H](O)[C@@](C)(CO)C5=CC[C@]43C)[C@@H]2C1
3. CCOc1ccccc1N=Nc1c(-c2ccccc2)nn(C(=O)CC(=O)Nc2cccc(Cl)c2)c1-c1ccccc1

1: > 100 µM; 2: > 100 µM; 3: > 100 µM
